tested on: CAKI-1; assay: NCI tumour cell line growth inhibition, 48 h
The source made the active and inactive calls. Rule as the data show it: active = GI50 up to about 1.1 µM and inactive = higher.
Hello, when you answer, please use one of the following outcomes: TRUE = active, FALSE = inactive

{"compound": "N#Cc1c(-c2ccccc2)cc(Nc2ccc(F)cc2)n2c1nc1ccccc12", "label": "FALSE"}

For CCCCCCCCCCCCCC(=O)O.O=CC(O)C(O)C(OC1OC(CO)C(O)C(O)C1O)C(O)CO (stereo not given) , what call appears in the results of this test?
FALSE

What was the test verdict on "CCN(CC)CCn1c(=O)c2ccccc2n2c3c(=O)n(C)c(=O)n(C)c3nc12" ?
TRUE

State the result this test recorded for CC1(C)OC1COc1c2occc2cc2ccc(=O)oc12 (stereo not given) .
FALSE

Could you check what this test reported for "O=C(O)CCCc1cc2c(s1)-c1cccc3cccc-2c13" ?
FALSE
